# tested_target: T1, His-tagged CRD2 (CRD of human Frizzled 2, residues 24-156) (human, UniProt Q14332 24-156)
# T1 construct: range 24-156
# method_description: pull down by His-CRD2

binder	binding result
TcdB fragment 1430-1804 (other) SGELKILMLNSNHIQQKIDYIGFNSELQKNIPYSFVDSEGKENGFINGSTKEGLFVSELPDVVLISKVYMDDSKPSFGYYSNNLKDVKVITKDNVNILTGYYLKDDIKISLSLTLQDEKTIKLNSVHLDESGVAEILKFMNRKGNTNTSDSLMSFLESMNIKSIFVNFLQSNIKFILDANFIISGTTSIGQFEFICDENDNIQPYFIKFNTLETNYTLYVGNRQNMIVEPNYDLDDSGDISSTVINFSQKYLYGIDSCVNKVVISPNIYTDEINITPVYETNNTYPEVIVLDANYINEKINVNINDLSIRYVWSNDGNDFILMSTSEENKVSQVKIRFVNVFKDKTLANKLSFNFSDKQDVPVSEIILSFTPSYY	no binding
TcdB fragment 1510-1688 (other) SNNLKDVKVITKDNVNILTGYYLKDDIKISLSLTLQDEKTIKLNSVHLDESGVAEILKFMNRKGNTNTSDSLMSFLESMNIKSIFVNFLQSNIKFILDANFIISGTTSIGQFEFICDENDNIQPYFIKFNTLETNYTLYVGNRQNMIVEPNYDLDDSGDISSTVINFSQKYLYGIDSCV	no binding
